Data provenance: PubChem BioAssay AID651654

# protocol_notes: fungicidal lysis via adenylate kinase leakage – AK release luminescence, single concentration, primary screen (AID 651654)
# experimental_context: C. neoformans lysis, 4 h, at 15 µM, normalised: neutral wells 0, clomiphene wells 100
About 740 (0.21%) of roughly 360,000 compounds were called active.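 How the source made its calls: active means mean lysis activity across replicates of at least 80%, whatever share of replicates individually reach that level; inactive means mean lysis activity below 80%.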 This is one part of a sample in which actives are shown more often than they occur.
Possible outcomes: active, inactive

test_smiles	classification
O=C(Nc1ccc(F)cc1)N1C[C@@H]2[C@H](c3ccccc31)[C@H](CO)N2Cc1ccccc1	inactive
CCNC(=O)C[C@@H]1CC[C@H]2[C@@H](COc3ccc(NC(=O)c4ccccc4Cl)cc3C(=O)N2C)O1	inactive
C[C@@H]1CCCCO[C@H](CN(C)C(=O)NC2CCCCC2)[C@@H](C)CN([C@H](C)CO)C(=O)c2cc(NS(C)(=O)=O)ccc2O1	inactive
Cc1cc(C(=O)Nc2ccc3c(c2)C(=O)N(C)[C@@H]2CC[C@@H](CC(=O)NC4CCCC4)O[C@@H]2CO3)no1	inactive
Cc1noc(C)c1NC(=O)Nc1ccc2c(c1)C(=O)N([C@@H](C)CO)C[C@H](C)[C@H](CN(C)CC1CCCCC1)O2	active
Cc1noc(C)c1NC(=O)Nc1ccc2c(c1)CC(=O)N([C@@H](C)CO)C[C@H](C)[C@@H](CN(C)CC1CCCCC1)O2	inactive
COc1ccc(C#Cc2cnc3c(c2)C(=O)N([C@@H](C)CO)C[C@H](C)[C@@H](CN(C)CC2CCOCC2)O3)cc1	inactive
C[C@H]1CN([C@@H](C)CO)C(=O)Cc2cc(NC(=O)Nc3cccc4ccccc34)ccc2O[C@@H]1CN(C)C	inactive
Cc1noc(C)c1NC(=O)Nc1ccc2c(c1)C(=O)N([C@@H](C)CO)C[C@@H](C)[C@H](CN(C)C)O2	inactive
O=C(Nc1ccccc1)N1C[C@H]2[C@@H](c3ccccc31)[C@@H](CO)N2Cc1cocn1	inactive
CCCC#Cc1ccc2c(c1)O[C@@H](CN(C)C(=O)c1cccnc1)[C@H](C)CN([C@H](C)CO)S2(=O)=O	inactive
C[C@@H]1CN([C@@H](C)CO)C(=O)Cc2cc(NC(=O)Nc3ccc4c(c3)OCO4)ccc2O[C@@H]1CN(C)CC1CCCCC1	inactive
O=C(Nc1ccc(F)cc1)N1C[C@H]2[C@@H](c3ccccc31)[C@@H](CO)N2Cc1cocn1	active
Cc1cc(C(=O)Nc2ccc3c(c2)C(=O)N(C)[C@@H]2CC[C@H](CC(=O)NC4CCCC4)O[C@@H]2CO3)no1	inactive
C[C@H]1CN([C@@H](C)CO)C(=O)c2cc(NC(=O)Nc3ccc4c(c3)OCO4)ccc2O[C@@H]1CN(C)CC1CCCCC1	active
COCC(=O)N(C)C[C@@H]1Oc2cc(C#CCC(C)C)ccc2S(=O)(=O)N([C@@H](C)CO)C[C@@H]1C	inactive

* * *

# protocol_notes: fungicidal lysis via adenylate kinase leakage – AK release luminescence, single concentration, primary screen (AID 651654)
# experimental_context: C. neoformans lysis, 4 h, at 15 µM, normalised: neutral wells 0, clomiphene wells 100
Screen size: about 360,000 compounds; about 740 (0.21%) were called active.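 The calls were made as follows: active = mean lysis activity across replicates of at least 80%, whatever share of replicates individually reach that level; inactive = mean lysis activity below 80%.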 What follows is part of a selection rich in actives, with near analogues and random picks from the rest.
Possible outcomes: active, inactive

test_smiles	classification
CC(=O)N1[C@H](CO)[C@@H](c2ccc(-c3ccc(F)cc3)cc2)[C@H]1CNC(=O)C1CC1	inactive
O=C(NC[C@@H]1[C@@H](c2ccccc2)[C@H](CO)N1C(=O)C1CCC1)NC1CCCC1	active
CCN(C[C@H]1[C@H](c2ccccc2)[C@H](CO)N1C(=O)C1CC1)C(=O)NC1CCCC1	inactive
C/C=C/c1ccc([C@H]2[C@@H](CNC(=O)NC(C)C)N(C(=O)C3CCC3)[C@H]2CO)cc1	inactive
C[C@@H]1CCCCO[C@H](CN(C)S(C)(=O)=O)[C@@H](C)CN([C@H](C)CO)C(=O)c2cc(NC(=O)Nc3ccc4c(c3)OCO4)ccc2O1	inactive
CC(=O)N1[C@H](CO)[C@H](c2ccc(-c3ccccc3)cc2)[C@H]1CNC(=O)C1CC1	active
CC(=O)N1[C@H](CO)[C@@H](c2ccc(-c3ccccc3)cc2)[C@H]1CNC(=O)C1CC1	inactive
COc1ccc(NC(=O)Nc2ccc3c(c2)C(=O)N([C@H](C)CO)C[C@@H](C)[C@H](CN(C)C(=O)Nc2ccc(C(F)(F)F)cc2)OCCCC[C@@H](C)O3)cc1	inactive

* * *

# protocol_notes: fungicidal lysis via adenylate kinase leakage – AK release luminescence, single concentration, primary screen (AID 651654)
# experimental_context: C. neoformans lysis, 4 h, at 15 µM, stronger effect = higher value, normalised: neutral wells 0, clomiphene wells 100
Screen size: about 360,000 compounds; about 740 (0.21%) were called active. This excerpt belongs to a sample that is enriched for actives.
Listing of recorded lysis activity by entry.

test_smiles	lysis activity [%]
C[C@@H]1CN([C@@H](C)CO)C(=O)c2cc(NC(=O)CCCN(C)C)ccc2O[C@@H]1CN(C)Cc1ccncc1	5.83
O=C(C1CCC1)N1CCCCN2[C@H](CO)[C@H](c3ccc(-c4cccc(F)c4)cc3)[C@H]2C1	4.53
C[C@@H]1CN([C@H](C)CO)S(=O)(=O)c2ccc(C3=CCCC3)cc2O[C@H]1CN(C)C(=O)c1ccccc1	2.54
COc1cccc(S(=O)(=O)Nc2ccc3c(c2)[C@H]2C[C@H](CC(=O)N4CCCCC4)O[C@@H](CO)[C@H]2O3)c1	-2.67

* * *

# protocol_notes: fungicidal lysis via adenylate kinase leakage – AK release luminescence, single concentration, primary screen (AID 651654)
# experimental_context: C. neoformans lysis, 4 h, at 15 µM, stronger effect = higher value, normalised: neutral wells 0, clomiphene wells 100
The whole screen tested about 360,000 compounds, of which about 740 (0.21%) were called active. Shown is part of a subset that was picked to be rich in actives.
Listing of recorded lysis activity by entry.

test_smiles	lysis activity, %
Cc1ccccc1CN(C)C[C@H]1OCc2cn(nn2)CCCC(=O)N([C@@H](C)CO)C[C@H]1C	96.6
CO[C@@H]1CN(C)C(=O)c2ccc(NS(C)(=O)=O)cc2OC[C@@H](C)N(CC2CC2)C[C@@H]1C	2.22
CCC(=O)N1[C@@H]2c3ccc(-c4cccnc4)c(=O)n3C[C@H]1[C@H](CO)[C@H]2C(=O)N1CCc2ccccc2C1	-6.94
COc1ccc(S(=O)(=O)N(C)C[C@@H]2Oc3ccc(NC(=O)CCC(F)(F)F)cc3C(=O)N([C@@H](C)CO)C[C@H]2C)cc1	2.26
CCCNC(=O)N1[C@H](CNC(=O)c2cccc(F)c2)[C@H](c2ccccc2)[C@@H]1CO	-0.391
C[C@@H]1CN([C@@H](C)CO)S(=O)(=O)c2ccc(-c3ccc(C(=O)N(C)C)cc3)cc2O[C@@H]1CN(C)C(=O)Cc1ccccn1	0.616
C[C@H](CO)N1C[C@H](C)[C@H](CN(C)S(C)(=O)=O)Oc2ccc(NC(=O)Nc3ccc(F)cc3)cc2C1=O	0.358
Cc1ccc(S(=O)(=O)Nc2ccc3c(c2)C(=O)N([C@@H](C)CO)C[C@@H](C)[C@@H](CN(C)Cc2ccc(C(F)(F)F)cc2)OCCCC[C@@H](C)O3)cc1	54.9
C[C@H](CO)N1C[C@H](C)[C@@H](CN(C)Cc2ccccc2C(F)(F)F)OCc2cn(nn2)CCCC1=O	-8.12
C[C@@H](NC(=O)C[C@H]1CC[C@@H](NC(=O)Cc2ccccn2)[C@@H](CO)O1)c1ccccc1	105
CO[C@@H]1CN(C)C(=O)c2cc(NC(=O)C3CC3)ccc2OC[C@@H](C)N(C(=O)c2ccccc2F)C[C@@H]1C	44
COc1ccc(S(=O)(=O)Nc2ccc3c(c2)C(=O)N([C@@H](C)CO)C[C@H](C)[C@@H](CN(C)C(=O)Nc2ccc4c(c2)OCO4)OCCCC[C@@H](C)O3)cc1	49.4
COc1cccc(-c2ccc3n(c2=O)C[C@@H]2[C@@H](CO)[C@H](C(=O)NCC4CC4)N(C(=O)NC(C)C)[C@H]32)c1	-2.16
COC(=O)C[C@@H]1C[C@H]2c3cc(NC(=O)Nc4ccc(F)cc4)ccc3O[C@H]2[C@@H](CO)O1	-7.03
C[C@H]1CN([C@@H](C)CO)C(=O)c2cccc(NC(=O)Nc3ccccc3)c2O[C@@H]1CN(C)S(=O)(=O)c1ccc(F)cc1	-1.52
C[C@@H](NC(=O)C[C@@H]1CC[C@H](NC(=O)Cc2ccccn2)[C@H](CO)O1)c1ccccc1	-0.901
C[C@@H]1CN([C@H](C)CO)C(=O)c2cc(C#CC3CC3)cnc2O[C@@H]1CN(C)Cc1cccc(C(=O)O)c1	-8.03
C[C@@H]1CN([C@H](C)CO)C(=O)CCCn2cc(nn2)CO[C@@H]1CN(C)Cc1ccccc1C(=O)O	-0.638
C[C@H]1CN([C@@H](C)CO)C(=O)c2ccccc2-c2ccccc2CO[C@H]1CN(C)S(=O)(=O)c1cccc(C#N)c1	82.9
C/C=C/c1ccc2c(c1)O[C@H](CN(C)C(=O)Nc1ccc(OC)cc1)[C@@H](C)CN([C@H](C)CO)S2(=O)=O	-3.44
C[C@@H]1CN([C@H](C)CO)C(=O)c2cc(NC(=O)CCCCCC(=O)Nc3ccccc3N)ccc2O[C@@H]1CN(C)Cc1ccncc1	0.608
C[C@H]1CN([C@@H](C)CO)C(=O)c2cccc(NC(=O)Nc3ccccc3)c2O[C@@H]1CN(C)S(C)(=O)=O	0.333
COc1ccc(S(=O)(=O)N(C)C[C@H]2Oc3ccc(NC(=O)Nc4c(C)noc4C)cc3C(=O)N([C@H](C)CO)C[C@H]2C)cc1	-3.44
Cc1noc(C)c1NC(=O)N(C)C[C@@H]1Oc2ccc(NC(=O)Nc3cccc4ccccc34)cc2CC(=O)N([C@@H](C)CO)C[C@H]1C	41.1
COc1ccc(S(=O)(=O)N2C[C@H](O)COC[C@@H]3O[C@H](CC(=O)NCCN4CCCCC4)CC[C@H]32)cc1	0.16
CCC(=O)N1C[C@@H](C)[C@H](OC)CN(C)C(=O)c2ccc(NC(=O)c3ccc(F)cc3)cc2OC[C@@H]1C	-5.87
Cc1ccc(S(=O)(=O)N(C)C[C@H]2OCc3ccccc3-c3ccccc3C(=O)N([C@@H](C)CO)C[C@@H]2C)cc1	-0.134
C[C@H]1CN([C@@H](C)CO)C(=O)c2ccccc2-c2ccccc2CO[C@H]1CN(C)S(=O)(=O)c1ccccc1C#N	1.59
CCCC#Cc1cnc2c(c1)C(=O)N([C@H](C)CO)C[C@H](C)[C@H](CN(C)C(=O)c1cnccn1)O2	-1.04
